- system name: 5-hydroxytryptamine receptor 1B (Rattus norvegicus, UniProt P28564)
- Sequence (P28564 whole entry): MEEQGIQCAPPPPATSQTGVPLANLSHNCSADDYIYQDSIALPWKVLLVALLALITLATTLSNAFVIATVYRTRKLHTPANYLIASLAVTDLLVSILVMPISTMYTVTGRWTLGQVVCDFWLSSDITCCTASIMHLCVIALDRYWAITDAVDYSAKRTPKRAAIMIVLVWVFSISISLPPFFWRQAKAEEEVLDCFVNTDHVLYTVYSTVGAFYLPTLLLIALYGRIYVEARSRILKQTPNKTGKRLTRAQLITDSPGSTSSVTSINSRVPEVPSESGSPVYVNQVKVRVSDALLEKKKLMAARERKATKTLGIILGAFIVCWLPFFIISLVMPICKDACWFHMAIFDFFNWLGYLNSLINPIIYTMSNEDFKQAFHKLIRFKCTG
- assay: The compound was tested for their binding affinity towards 5-hydroxytryptamine 1B receptor from rat striatum using [3H]5-HT as radioligand
parameter: Ki (µM)
Return type: number; implicit unit µM.

Reference set (2 entries):
smiles input | Ki [µM]
c1ccc2c(c1)OCCc1c(N3CCNCC3)nc3ccccc3c1-2 | 0.42
CN(C)CCSc1nc2ccccc2c2c1CCOc1ccccc1-2 | 1.3

Reported Ki (5-hydroxytryptamine receptor 1B (Rattus norvegicus, UniProt P28564)) for entry c1ccc2nc(N3CCNCC3)ccc2c1 is 0.208

* * *

Here, each record is paired with measured Ki data.
- system name: Serotonin 3 (5-HT3) receptor (Rattus norvegicus, UniProt P35563+Q9JJ16)
- Sequence (P35563 whole entry): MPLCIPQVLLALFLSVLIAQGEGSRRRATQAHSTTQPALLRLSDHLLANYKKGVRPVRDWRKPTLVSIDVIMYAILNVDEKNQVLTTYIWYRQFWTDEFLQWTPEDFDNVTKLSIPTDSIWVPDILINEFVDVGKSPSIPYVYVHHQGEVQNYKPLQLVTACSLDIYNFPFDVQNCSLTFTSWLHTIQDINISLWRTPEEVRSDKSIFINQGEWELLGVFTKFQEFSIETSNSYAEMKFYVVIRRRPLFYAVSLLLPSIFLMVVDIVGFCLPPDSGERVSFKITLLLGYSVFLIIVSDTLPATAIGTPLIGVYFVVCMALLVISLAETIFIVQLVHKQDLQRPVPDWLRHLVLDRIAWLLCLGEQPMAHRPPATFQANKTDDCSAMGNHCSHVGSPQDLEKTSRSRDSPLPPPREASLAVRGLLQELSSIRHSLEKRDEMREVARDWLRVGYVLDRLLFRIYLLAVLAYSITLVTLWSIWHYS
- Sequence (Q9JJ16 whole entry): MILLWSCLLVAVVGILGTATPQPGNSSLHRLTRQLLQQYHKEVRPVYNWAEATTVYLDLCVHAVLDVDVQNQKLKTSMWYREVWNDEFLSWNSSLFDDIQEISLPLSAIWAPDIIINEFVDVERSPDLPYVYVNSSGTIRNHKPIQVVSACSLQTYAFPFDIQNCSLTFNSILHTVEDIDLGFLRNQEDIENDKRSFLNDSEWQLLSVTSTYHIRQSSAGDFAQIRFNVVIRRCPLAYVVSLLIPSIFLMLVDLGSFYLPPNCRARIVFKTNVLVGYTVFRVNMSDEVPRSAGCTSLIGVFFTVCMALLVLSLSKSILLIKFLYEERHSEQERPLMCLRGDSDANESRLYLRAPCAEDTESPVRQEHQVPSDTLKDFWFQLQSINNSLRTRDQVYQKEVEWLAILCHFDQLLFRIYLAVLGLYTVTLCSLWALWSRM
- assay: Binding affinity for 5-hydroxytryptamine 3 receptor from rat cortex using [3H]BRL-43694 as radioligand
Respond with the bare value in nM.

Serotonin 3 (5-HT3) receptor (Rattus norvegicus, UniProt P35563+Q9JJ16) assay, compound c1ccc2c(c1)ccc1c(N3CCNCC3)nc3ccccc3c12 , recorded Ki = 130

* * *

- system name: 5-hydroxytryptamine receptor 4 (Cavia porcellus, UniProt O70528)
- Sequence (O70528 whole entry): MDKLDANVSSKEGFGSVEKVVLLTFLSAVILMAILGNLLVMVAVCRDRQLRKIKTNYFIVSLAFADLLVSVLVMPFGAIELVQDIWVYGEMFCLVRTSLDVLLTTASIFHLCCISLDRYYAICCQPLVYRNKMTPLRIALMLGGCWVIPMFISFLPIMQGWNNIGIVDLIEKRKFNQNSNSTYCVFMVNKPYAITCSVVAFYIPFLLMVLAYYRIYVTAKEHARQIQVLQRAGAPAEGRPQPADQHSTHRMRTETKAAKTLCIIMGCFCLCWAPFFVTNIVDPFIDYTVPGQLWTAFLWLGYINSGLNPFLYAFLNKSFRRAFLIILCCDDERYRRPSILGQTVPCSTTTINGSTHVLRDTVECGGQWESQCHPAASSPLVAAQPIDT
- assay: The compound was tested for their binding affinity towards 5-hydroxytryptamine 4 receptor from guinea pig striatum using [3H]GR-113808 as radioligand.
- measurement context: read-out: Ki
parameter: Ki (µM)
Record the value in µM, omitting the unit from your answer.

// Ki value for CN1CCN(c2nc3ccccc3c3c2oc2ccccc23)CC1 : 6.9

* * *

Quick reference: pKi of the listed items.
- system name: 5-hydroxytryptamine receptor 2A (Rattus norvegicus, UniProt P14842)
- Sequence (P14842 whole entry): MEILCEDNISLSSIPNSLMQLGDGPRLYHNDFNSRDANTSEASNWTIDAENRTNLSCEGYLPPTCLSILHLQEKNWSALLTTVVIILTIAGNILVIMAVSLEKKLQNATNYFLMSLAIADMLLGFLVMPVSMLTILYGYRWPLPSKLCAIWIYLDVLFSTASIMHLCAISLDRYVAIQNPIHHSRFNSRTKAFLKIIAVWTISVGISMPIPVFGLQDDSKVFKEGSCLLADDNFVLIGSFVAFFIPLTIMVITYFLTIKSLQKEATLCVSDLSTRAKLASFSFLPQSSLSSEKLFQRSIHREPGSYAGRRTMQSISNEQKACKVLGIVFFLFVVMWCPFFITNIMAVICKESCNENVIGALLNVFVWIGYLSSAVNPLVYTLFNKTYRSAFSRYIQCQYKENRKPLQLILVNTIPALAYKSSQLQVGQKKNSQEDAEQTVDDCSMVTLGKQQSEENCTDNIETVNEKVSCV
- measurement context: read-out: Ki
The scale used: pKi is minus the common logarithm of the concentration in molar units.

Example entries and their recorded answers appear below.
smiles input | pKi
CN1CCN(c2nc3ccccc3c3c2CCc2ccccc2-3)CC1 | 6.40
c1ccc2nc(N3CCNCC3)ccc2c1 | 6.89
CN(C)CCSc1nc2ccccc2c2c1ccc1ccccc12 | 5.62

Input COc1cc2c(N3CCNCC3)nc3ccccc3c2c2ccccc12 . Output pKi: 5.96

Documented pKi of CN1CCN(c2nc3ccccc3c3c2COc2ccccc2-3)CC1 : 5.85

In plain terms, CN(C)CCSc1nc2ccccc2c2c1CCOc1ccccc1-2 has a documented pKi of 5.55

* * *

- system name: Sodium-dependent serotonin transporter (Rattus norvegicus)
- Sequence (P31652 whole entry): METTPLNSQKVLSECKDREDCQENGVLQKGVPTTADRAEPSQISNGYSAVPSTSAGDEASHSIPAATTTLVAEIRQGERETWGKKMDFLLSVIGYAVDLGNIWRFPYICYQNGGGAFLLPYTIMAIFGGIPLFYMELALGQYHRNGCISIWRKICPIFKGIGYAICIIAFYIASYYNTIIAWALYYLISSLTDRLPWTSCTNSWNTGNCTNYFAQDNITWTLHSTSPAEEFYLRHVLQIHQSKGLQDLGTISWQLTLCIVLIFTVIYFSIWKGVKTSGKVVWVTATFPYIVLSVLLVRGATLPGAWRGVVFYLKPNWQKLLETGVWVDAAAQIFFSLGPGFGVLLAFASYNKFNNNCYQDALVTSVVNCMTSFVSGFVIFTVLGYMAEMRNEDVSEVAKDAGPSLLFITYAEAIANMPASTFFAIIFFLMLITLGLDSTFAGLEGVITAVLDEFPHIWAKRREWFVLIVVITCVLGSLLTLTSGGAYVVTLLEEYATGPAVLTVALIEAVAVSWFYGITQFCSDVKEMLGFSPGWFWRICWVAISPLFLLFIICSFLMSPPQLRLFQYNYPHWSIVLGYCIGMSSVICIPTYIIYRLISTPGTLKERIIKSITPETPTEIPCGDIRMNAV

smiles input | Ki
COc1cc2c(N3CCNCC3)nc3ccccc3c2c2ccccc12 | Not Active
CN(C)CCSc1nc2ccccc2c2c1CCOc1ccccc1-2 | Not Active
CCN1CCN(c2nc3ccccc3c3c2CCc2ccccc2-3)CC1 | Not Active

* * *

- system name: 5-hydroxytryptamine receptor 2A (Rattus norvegicus, UniProt P14842)
- measurement context: read-out: Ki
parameter: pKi
The scale used: pKi is minus the common logarithm of the concentration in molar units.

Worked cases, pKi given:
smiles input | reading
CN1CCN(c2nc3ccccc3c3c2CCOc2ccccc2-3)CC1 | 5.62
CN(C)CCSc1nc2ccccc2c2c1CCc1ccccc1-2 | 6.03
c1ccc2c(c1)CCc1c(N3CCNCC3)nc3ccccc3c1-2 | 6.19

Form field, pKi with 5-hydroxytryptamine receptor 2A (Rattus norvegicus, UniProt P14842), item c1ccc2c(c1)ccc1c(N3CCNCC3)nc3ccccc3c12 : 5.96

The measured pKi that CN1CCN(c2nc3ccccc3c3c2ccc2ccccc23)CC1 showed for 5-hydroxytryptamine receptor 2A (Rattus norvegicus, UniProt P14842) is 6.04

I looked up CCN1CCN(c2nc3ccccc3c3c2ccc2ccccc23)CC1 and its pKi for 5-hydroxytryptamine receptor 2A (Rattus norvegicus, UniProt P14842) was 6.19

* * *

- system name: Serotonin 3 (5-HT3) receptor (Rattus norvegicus, UniProt P35563+Q9JJ16)
- assay: Binding affinity for 5-hydroxytryptamine 3 receptor from rat cortex using [3H]BRL-43694 as radioligand
pKi: −log10 of the molar value.
Everything with pKi lower than 7 is Not satisfied; everything else, including exactly 7, is Satisfied.

smiles input | group label
CN1CCN(c2nc3ccccc3c3c2oc2ccccc23)CC1 | Satisfied

Consider the additional compound presented here.
Prompt line: Is pKi at least 7? Consider CCN1CCN(c2nc3ccccc3c3c2cc(OC)c2ccccc23)CC1
Response line: Not satisfied

* * *

- system name: 5-hydroxytryptamine receptor 2C (Sus scrofa)
- assay: The compound was tested for their binding affinity towards 5-hydroxytryptamine 2C receptor
parameter: Ki (µM)
// note: answer is a bare numeric in µM

smiles input | Ki / µM
COc1cc2c(N3CCN(C)CC3)nc3ccccc3c2c2ccccc12 | 2.3

In the following, a different compound is considered.
# Ki of CN1CCN(c2nc3ccccc3c3c2CCc2ccccc2-3)CC1 = 7.2

* * *

- system name: 5-hydroxytryptamine receptor 1B (Rattus norvegicus, UniProt P28564)
- assay: The compound was tested for their binding affinity towards 5-hydroxytryptamine 1B receptor from rat striatum using [3H]5-HT as radioligand.
parameter: Ki (nM)
Numbers only; they are read as nM.

# Ki measured on 5-hydroxytryptamine receptor 1B (Rattus norvegicus, UniProt P28564) for item c1ccc2c(c1)nc(N1CCNCC1)c1oc3ccccc3c12 = 280

* * *

Quick reference: Ki of the listed items.
- system name: Sodium-dependent serotonin transporter (Rattus norvegicus)
- assay: Effect of compound on Serotonin transporter uptake from rat cortex using [3H]citalopram as radioligand

Solved cases (4 shown):
smiles input | Ki
c1ccc2nc(N3CCNCC3)ccc2c1 | 43 nM
c1ccc2c(c1)OCc1c(N3CCNCC3)nc3ccccc3c1-2 | 360 nM
c1ccc2c(CCC3CCNCC3)c[nH]c2c1 | 2 nM
c1ccc2c(c1)OCCc1c(N3CCNCC3)nc3ccccc3c1-2 | 330 nM

Proceeding to the next compound to report its Ki.
Entry c1ccc2c(c1)CCc1c(N3CCNCC3)nc3ccccc3c1-2 ; Ki = 2600 nM

* * *

List of pKi values.
- system name: UniProt:P14842
- measurement context: read-out: Ki
Just the number, please; pKi means minus log10 of the concentration in mol/L.

Some compounds with recorded pKi:
smiles input | reading
c1ccc2c(c1)OCCc1c(N3CCNCC3)nc3ccccc3c1-2 | 5.49
CCN1CCN(c2nc3ccccc3c3c2cc(OC)c2ccccc23)CC1 | 6.16
c1ccc2c(c1)nc(N1CCNCC1)c1oc3ccccc3c12 | 5.92
COc1cc2c(N3CCN(C)CC3)nc3ccccc3c2c2ccccc12 | 6.62
CN1CCN(c2nc3ccccc3c3c2oc2ccccc23)CC1 | 6.35
CCN1CCN(c2nc3ccccc3c3c2COc2ccccc2-3)CC1 | 5.96
CCN1CCN(c2nc3ccccc3c3c2CCc2ccccc2-3)CC1 | 6.22
CCN1CCN(c2nc3ccccc3c3c2oc2ccccc23)CC1 | 6.28

For this compound ( CN(C)CCSc1nc2ccccc2c2c1COc1ccccc1-2 ), measured pKi is 5.74

Item: c1ccc2c(c1)OCc1c(N3CCNCC3)nc3ccccc3c1-2 | pKi: 5.55

* * *

- system name: Serotonin 3 (5-HT3) receptor (Rattus norvegicus, UniProt P35563+Q9JJ16)
- assay: Binding affinity for 5-hydroxytryptamine 3 receptor from rat cortex using [3H]BRL-43694 as radioligand
With a cut-off of 30 nM, any Ki strictly below it is called true; any Ki meeting it or above is called false.

Prompt line: For CN1CCN(c2nc3ccccc3c3c2CCc2ccccc2-3)CC1 , is the recorded Ki below the cut-off of 30 nM?
Response line: true

Prompt line: Item c1ccc2c(c1)nc(N1CCNCC1)c1oc3ccccc3c12 : Ki beneath 30 nM, strictly?
Response line: false

Prompt line: hey, is Ki for CN1CCN(c2nc3ccccc3c3c2ccc2ccccc23)CC1 lower than 30 nM or not?
Response line: true

Prompt line: Identify whether the compound CN1CCN(c2nc3ccccc3c3c2COc2ccccc2-3)CC1 records Ki below 30 nM.
Response line: true

Prompt line: # strict comparison: is reported Ki < 30 nM? input = CCN1CCN(c2nc3ccccc3c3c2ccc2ccccc23)CC1
Response line: true

Prompt line: Problem: For the compound CCN1CCN(c2nc3ccccc3c3c2CCc2ccccc2-3)CC1 , is Ki under 30 nM?
Response line: true

Prompt line: Please let me know if COc1cc2c(N3CCNCC3)nc3ccccc3c2c2ccccc12 shows Ki below 30 nM.
Response line: false

Prompt line: In the record for CN(C)CCSc1nc2ccccc2c2c1oc1ccccc12 , is Ki less than 30 nM?
Response line: false

Prompt line: Lab log: compare recorded Ki with 30 nM; is it strictly lower for CCN1CCN(c2nc3ccccc3c3c2oc2ccccc23)CC1 ?
Response line: false

Prompt line: # TODO verify Ki < 30 nM strictly for this compound: c1ccc2c(c1)OCc1c(N3CCNCC3)nc3ccccc3c1-2
Response line: true

Prompt line: Please indicate whether the reported Ki of c1ccc2c(c1)CCc1c(N3CCNCC3)nc3ccccc3c1-2 is strictly below 30 nM.
Response line: true
